# System: HCT-116 colon
# Protocol notes: NCI tumour cell line growth inhibition, 48 h
Please respond with reported GI50 for every item in the list.

Entry CCN1CCN(C(=O)[C@]23CC[C@@H](C)[C@H](C)[C@@H]2C2=CC[C@@H]4[C@@]5(C)CCC(=O)C(C)(C)[C@@H]5CC[C@@]4(C)[C@]2(C)CC3)CC1 ; GI50 = 0.798 µM

Entry CC(=O)C1=C(C)N(Cc2ccccc2)C2(O)C=CC(=O)C3=C(O)c4ccccc4C(=O)C312 (centres undefined) ; GI50 = 1.99 µM

Entry Nc1nc(-c2ccc3c(c2)/C(=C\c2cc(Br)c(O)c(Br)c2)C(=O)N3)cs1 ; GI50 = 12.9 µM

Entry CC(C)(C)NCC(O)c1ccccc1Cl (centres undefined) ; GI50 = > 100 µM

Entry COc1cc2c(cc1OCC(=O)Nc1ccc(Cl)cc1C(=O)c1ccccc1Cl)N=CC1CCCN1C2=O (centres undefined) ; GI50 = 7.18 µM

Entry Cc1cc(I)cc(CN(C)CCCN2CCC(C)CC2)c1O ; GI50 = 10.4 µM

Entry Cn1nc(C(F)(F)F)cc1-c1cc(Cl)c(OCc2ccc(Cl)cc2)c(-c2ccc(Cl)c(C(F)(F)F)c2)c1O ; GI50 = 0.691 µM

Entry Nc1ccc(C#Cc2ccccc2C#CCCCCO)cc1 ; GI50 = 14.3 µM

Entry CCOC(=O)C1=C(Nc2ccc(OC)cc2)C(N)=NC1=N ; GI50 = 2.45 µM
